Entry source: patent US20200199127A1

Biological target: Human α2δ-1 subunit of Cav2.2 calcium channel (Homo sapiens, UniProt P54289)
Sequence (P54289 25-1103): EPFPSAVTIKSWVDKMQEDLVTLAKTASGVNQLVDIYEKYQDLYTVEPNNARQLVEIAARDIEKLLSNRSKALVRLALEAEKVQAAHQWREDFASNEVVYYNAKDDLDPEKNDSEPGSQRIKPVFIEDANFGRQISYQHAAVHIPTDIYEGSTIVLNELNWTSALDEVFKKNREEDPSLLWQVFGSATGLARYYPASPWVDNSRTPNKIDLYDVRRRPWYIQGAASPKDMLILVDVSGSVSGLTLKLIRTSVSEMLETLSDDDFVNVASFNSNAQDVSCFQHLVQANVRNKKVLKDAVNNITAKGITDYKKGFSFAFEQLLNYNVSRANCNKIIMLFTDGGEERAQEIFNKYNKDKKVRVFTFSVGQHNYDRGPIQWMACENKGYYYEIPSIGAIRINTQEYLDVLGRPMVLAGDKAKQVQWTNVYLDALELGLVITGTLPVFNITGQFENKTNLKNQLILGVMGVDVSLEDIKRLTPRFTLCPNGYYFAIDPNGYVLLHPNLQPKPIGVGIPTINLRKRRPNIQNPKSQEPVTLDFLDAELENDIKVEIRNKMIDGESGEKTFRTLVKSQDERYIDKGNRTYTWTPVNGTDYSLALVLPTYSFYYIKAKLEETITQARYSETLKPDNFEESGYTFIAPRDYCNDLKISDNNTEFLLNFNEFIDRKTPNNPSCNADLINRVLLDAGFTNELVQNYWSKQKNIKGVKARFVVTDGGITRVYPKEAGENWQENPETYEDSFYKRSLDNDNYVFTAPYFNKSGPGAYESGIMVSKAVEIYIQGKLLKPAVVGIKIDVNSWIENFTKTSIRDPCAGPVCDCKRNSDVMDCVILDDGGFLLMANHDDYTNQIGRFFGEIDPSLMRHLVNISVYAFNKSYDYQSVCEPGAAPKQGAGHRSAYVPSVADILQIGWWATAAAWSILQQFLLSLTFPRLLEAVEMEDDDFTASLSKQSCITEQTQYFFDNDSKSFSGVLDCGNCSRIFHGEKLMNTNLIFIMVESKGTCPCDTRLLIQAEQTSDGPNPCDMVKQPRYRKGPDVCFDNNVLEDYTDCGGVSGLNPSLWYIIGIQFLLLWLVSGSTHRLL
Assay: Human α2δ-1 subunit of Cav2.2 calcium channel assay, [3H]-Gabapentin binding
Conditions: human α2δ-1 enriched membranes, 15 nM [3H]-Gabapentin; Ki as class symbol
pKi: −log10 of the molar value.
Assay Readout: pKi

Known pKi results, listed for orientation:
Compound: CCOc1ccc(-n2nc3c(N(C)Cc4cccc(OC)n4)nnc(C)c3c2C)c(F)c1
Assay Value: 6.30 to 7.00
//
Compound: CCOc1ccc(-n2nc3c(N(C)CCCc4ccccc4)nnc(C)c3c2C)c(F)c1
Assay Value: 6.30 to 7.00
//
Compound: CCOc1ccc(-n2nc3c(NC(CCO)c4ccccc4)nnc(C)c3c2C)c(F)c1 (stereo not shown)
Assay Value: 6.30 to 7.00
//
Compound: CCOc1ccc(-n2nc3c(N(C)Cc4ncccn4)nnc(C)c3c2C)c(F)c1
Assay Value: 6.30 to 7.00
//
Compound: CCOc1ccc(-n2nc3c(NCC(O)Cc4ccccc4)nnc(C)c3c2C)c(F)c1 (stereo not shown)
Assay Value: 6.30 to 7.00

## Input Please state recorded pKi (tested on Human α2δ-1 subunit of Cav2.2 calcium channel (Homo sapiens, UniProt P54289)) of CCOc1ccc(-n2nc3c(N(C)CCn4cnc5ccccc54)nnc(C)c3c2C)c(F)c1
## Output 5.30 to 6.30

## Input Please state recorded pKi (tested on Human α2δ-1 subunit of Cav2.2 calcium channel (Homo sapiens, UniProt P54289)) of CCOc1ccc(-n2nc3c(N(C)Cc4ccncc4)nnc(C)c3c2C)c(F)c1
## Output 6.30 to 7.00

## Input Please state recorded pKi (tested on Human α2δ-1 subunit of Cav2.2 calcium channel (Homo sapiens, UniProt P54289)) of COc1ccc(-n2nc3c(N(C)Cc4ccccn4)nnc(C)c3c2C)c(F)c1
## Output ≤ 5.30

## Input Please state recorded pKi (tested on Human α2δ-1 subunit of Cav2.2 calcium channel (Homo sapiens, UniProt P54289)) of CCOc1ccc(-n2nc3c(NCc4cc(C)ccn4)nnc(C)c3c2C)c(F)c1
## Output 6.30 to 7.00

## Input Please state recorded pKi (tested on Human α2δ-1 subunit of Cav2.2 calcium channel (Homo sapiens, UniProt P54289)) of CCOc1ccc(-n2nc3c(N(C)Cc4ncccc4F)nnc(C)c3c2C)c(F)c1
## Output 6.30 to 7.00

## Input Please state recorded pKi (tested on Human α2δ-1 subunit of Cav2.2 calcium channel (Homo sapiens, UniProt P54289)) of CCOc1ccc(-n2nc3c(N(C)Cc4cnccn4)nnc(C)c3c2C)c(F)c1
## Output 6.30 to 7.00

## Input Please state recorded pKi (tested on Human α2δ-1 subunit of Cav2.2 calcium channel (Homo sapiens, UniProt P54289)) of CCOc1ccc(-n2nc3c(N(C)Cc4cccc(C)n4)nnc(C)c3c2C)c(F)c1
## Output 6.30 to 7.00

## Input Please state recorded pKi (tested on Human α2δ-1 subunit of Cav2.2 calcium channel (Homo sapiens, UniProt P54289)) of CCOc1ccc(-n2nc3c(N(C)Cc4ccccn4)nnc(C)c3c2C)c(F)c1
## Output 6.30 to 7.00

## Input Please state recorded pKi (tested on Human α2δ-1 subunit of Cav2.2 calcium channel (Homo sapiens, UniProt P54289)) of CCOc1ccc(-n2nc3c(N(C)C(CCO)c4ccccc4)nnc(C)c3c2C)c(F)c1 (stereo not shown)
## Output 5.30 to 6.30
